Where do these numbers come from? They come from ChEMBL document CHEMBL4513216.

tested on: Plasmodium falciparum; assay: Screen against P. falciparum Asexual Blood Stage (ABS), at 5uM; assay type: functional, Dd2; conditions: tested at 5 uM
In all, about 65,000 compounds went through this assay and about 2,100 (3.2%) showed an effect of 50% or more. The median lay at about -52%. Only a selection was taken, and strong results are over-represented in it overall.
Below: a set of entries, each annotated with reported INHIBITION.
Your answer is read as %, so omit the unit and give the number.

Completed entries (count: 2):
> print(dat)
                                   molecule  unit.annotation  value.reported
1  CN1CCCN(c2nccc(-c3c[nH]nc3-c3ccncc3)n2)CC1                %            66.9
2       COCCS(=O)(=O)Nc1ccc(-n2cncn2)c(F)c1                %            68.3

Record `CC(C)(CN1C[C@H](Nc2ncccn2)[C@@H](C2CC2)C1)N1CCOCC1` . Reported INHIBITION: 50.5

Record `COc1cccc(OCCNCc2ccccc2)c1` . Reported INHIBITION: 34.7

* * *

tested on: Plasmodium falciparum; assay: Screen against P. falciparum Asexual Blood Stage (ABS), at 5uM; format: functional, Dd2; conditions: tested at 5 uM
Out of some 65,000 compounds screened, about 2,100 (3.2%) showed an effect of 50% or more. The median lay at about -52%. The sample as a whole holds a higher share of strong results than the screen did.
VALUE TYPE: INHIBITION (%)
Your answer is read as %, so omit the unit and give the number.

> print(dat)
                                   compound  value.type  value.reported
1  CN1CC(=O)N(c2cccc(F)c2)CC12CCN(Cc1nccs1)C2 (stereo not given)  INHIBITION           -71.1

Record `CN1CCN(S(=O)(=O)c2cccc(F)c2)c2cnccc21` . Reported INHIBITION: 13.2

Record `Cn1cc(-c2cnc3n2CCC32CCN(S(=O)(=O)C3CC3)CC2)cn1` . Reported INHIBITION: -61.5

Record `CN(C)CC(C)(C)Cn1cnc(-c2ccccc2)c1-c1cccc(O)c1` . Reported INHIBITION: 50.9

Record O=C1CC2(CCCNC2)C(=O)N1Cc1cccc(F)c1 (stereo not given) . Reported INHIBITION: -47.2

Record `Cc1ccc(C(=O)N2C[C@@H]3[C@@H](C2)OCC(=O)N3Cc2cccnc2)o1` . Reported INHIBITION: -84.3

Record Cc1ccc(N2CCCC(NCc3nnc(-c4ccco4)o3)C2)nn1 (stereo not given) . Reported INHIBITION: 50.3

Record `Cc1nc(-c2ccc(Cl)cc2)n(CC(=O)NC(C)C)c(=O)c1CCO` . Reported INHIBITION: -186

Record `Cc1ncc(CN2CC[C@@](C)(O)[C@H](Oc3cccc(F)c3)C2)cn1` . Reported INHIBITION: -18.7

Record `CCN1C[C@@H]2CN(S(=O)(=O)c3cccs3)C[C@@H]2C1=O` . Reported INHIBITION: 64.6

Record `COCCN1C[C@@H]2CN(S(=O)(=O)c3cccs3)C[C@@H]2C1=O` . Reported INHIBITION: -43.2

Record CN(C)S(=O)(=O)NC1CCCc2c1cnn2-c1ccc(C(C)(C)C)cc1 (stereo not given) . Reported INHIBITION: -174
